What inhibition of SARS-CoV-2 cytopathic effect was measured for each of the following?
- Test system: Vero E6 infected with SARS-CoV-2
- assayDetails: inhibition of SARS-CoV-2 cytopathic effect; higher = more antiviral protection, active = above 15
- experimentalSetup: 100 nM; 48 h
Answers are plain numbers, in %.

{"columns": ["compound", "measuredNumber"],
 "data": [
  ["Cc1c(C(=O)NC2CCCCC2)sc2nc3ccc(N)cc3n12", -1.92],
  ["O=C(O)C(Cc1ccccc1[N+](=O)[O-])=NNc1nc(-c2ccc(Cl)c(Cl)c2)cs1", -1.01],
  ["CC1=CC[C@@H](C(C)(C)O)C[C@@H]1O [sobrepin]", -11.4],
  ["Nc1ncnc2c1ncn2C1CCCO1 (stereo not given)", -1],
  ["COc1ccc2c(c1)c(CC(=O)N1CCOCC1)c(C)n2C(=O)c1ccc(Cl)cc1", 1.8],
  ["O=C1[C@@H]2[C@H]3CC[C@H](C3)[C@@H]2C(=O)N1CCCCN1CCN(c2ncccn2)CC1 [tandospirone]", -0.17],
  ["NS(=O)(=O)c1cc2c(cc1C(F)(F)F)NCNS2(=O)=O [hydroflumethiazide]", 1.79],
  ["Cn1cncc1[C@@](N)(c1ccc(Cl)cc1)c1ccc2c(c1)c(-c1cccc(Cl)c1)cc(=O)n2C [tipifarnib]", 1.79],
  ["Cc1cc(O)c(C(C)C)cc1Cl [chlorothymol]", 2.72]
]}

// next item, inhibition of SARS-CoV-2 cytopathic effect requested
Value lookup for inhibition of SARS-CoV-2 cytopathic effect; key = NC(=O)c1cccnc1 [nicotinamide]
-1.16

====

- Test system: Vero E6 infected with SARS-CoV-2
- assayDetails: SARS-CoV-2 infection rate relative to infected DMSO; higher = more infection, active = 60 or less
- experimentalSetup: 24 h
For each entry below, report its SARS-CoV-2 infection rate value.
Give bare numbers, in %.

Study these solved cases before continuing.
{"columns": ["molecule", "unitAbbreviation", "measuredNumber"],
 "data": [
  ["C=CCN1C[C@H](C(=O)N(CCCN(C)C)C(=O)NCC)C[C@@H]2c3cccc4[nH]cc(c34)C[C@H]21 [cabergoline] (10 µM)", "%", 104],
  ["NC(N)=Nc1nc(CSCC/C(N)=N/S(N)(=O)=O)cs1 [famotidine] (10 µM)", "%", 106],
  ["CCS(=O)(=O)N(C)[C@H]1c2cc(C#N)ccc2OC(C)(C)[C@@H]1O [chromanol-293B-(-)-[3R,4S]] (10 µM)", "%", 104],
  ["CC[C@H](CC#N)OC(=O)N[C@@H](C)c1cccc(NC(=O)Nc2ccc(-c3cnco3)c(OC)c2)c1 (10 µM)", "%", 97],
  ["O=c1c2ccccc2[se]n1-c1ccccc1 [Ebselen] (10 µM)", "%", 84.5],
  ["C#C[C@]1(O)C=C[C@H]2[C@@H]3CCC4=CC(=O)CC[C@@H]4[C@H]3CC[C@@]21CC [gestodene] (10 µM)", "%", 107],
  ["Cn1cc(-c2ccc3nnc(Sc4ccc5ncccc5c4)n3n2)cn1 (10 µM)", "%", 87]
]}

Return reported SARS-CoV-2 infection rate; argument: CC1=C(C(=O)O)N2C(=O)[C@@H](NC(=O)[C@H](N)c3ccc(O)cc3)[C@H]2SC1 [cefadroxil] (10 µM)
108
